Assay: Half life in rat liver microsomes
Assay type: ADME, Microsome
Each entry below carries its reported half-life.
Give the value in min but do not write min after it.

For orientation, consider the following solved cases.
> print(dat)
                           substance.smiles  measured.number
1  O=C(/C=C/c1ccc2c(c1)nc(CCc1ccccc1)n2CCN1CCCC1)NO              4.3
2  CCCCc1nc2cc(/C=C/C(=O)NO)ccc2n1CCN(CC)CC.Cl.Cl              7.8

The record that follows has no half-life shown yet.
Quick note, half-life for CCCCCCc1nc2cc(/C=C/C(=O)NO)ccc2n1CCNCC.Cl.Cl landed at 1.1

Ref: ChEMBL document CHEMBL1828590
